Target: T1, recombinant mouse VISTA (His-tagged) (mouse, UniProt Q9D659 33-191)
T1 construct: also called murine VISTA; mVISTA
T1 sequence (looked up): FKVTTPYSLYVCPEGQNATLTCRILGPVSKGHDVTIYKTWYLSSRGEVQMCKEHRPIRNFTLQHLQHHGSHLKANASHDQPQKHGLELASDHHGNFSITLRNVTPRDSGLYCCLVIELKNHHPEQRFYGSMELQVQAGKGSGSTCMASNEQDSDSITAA
Assay: BLI (Octet), 1:1 global fit, His-tagged mouse VISTA captured
Would you kindly list kon for each of these binders?
One number for each entry, in M⁻¹ s⁻¹.

Solved entries:
[
  {
    "binder": "anti-VISTA clone V4-C27 IgG1 (antibody, V domains shown) VH: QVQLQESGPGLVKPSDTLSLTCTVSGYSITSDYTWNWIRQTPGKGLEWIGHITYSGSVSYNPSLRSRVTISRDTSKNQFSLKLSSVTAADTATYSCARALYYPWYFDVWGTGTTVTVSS VL: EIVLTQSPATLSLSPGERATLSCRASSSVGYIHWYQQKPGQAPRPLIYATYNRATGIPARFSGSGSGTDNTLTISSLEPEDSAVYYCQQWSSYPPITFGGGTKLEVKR",
    "reported_endpoint": "kon",
    "recorded_measurement": 426000
  },
  {
    "binder": "anti-VISTA clone V4-C9 IgG1 (antibody, V domains shown) VH: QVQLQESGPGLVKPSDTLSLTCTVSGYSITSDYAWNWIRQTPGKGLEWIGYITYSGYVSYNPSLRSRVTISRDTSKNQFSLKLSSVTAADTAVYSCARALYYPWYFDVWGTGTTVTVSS VL: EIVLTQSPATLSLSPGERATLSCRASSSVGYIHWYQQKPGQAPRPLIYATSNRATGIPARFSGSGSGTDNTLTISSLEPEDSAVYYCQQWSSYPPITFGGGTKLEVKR",
    "reported_endpoint": "kon",
    "recorded_measurement": 311000
  },
  {
    "binder": "anti-VISTA clone V4-C31 IgG1 (antibody, V domains shown) VH: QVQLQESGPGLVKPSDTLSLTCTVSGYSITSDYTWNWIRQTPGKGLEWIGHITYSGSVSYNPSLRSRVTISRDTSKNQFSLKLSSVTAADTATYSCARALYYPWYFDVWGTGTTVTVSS VL: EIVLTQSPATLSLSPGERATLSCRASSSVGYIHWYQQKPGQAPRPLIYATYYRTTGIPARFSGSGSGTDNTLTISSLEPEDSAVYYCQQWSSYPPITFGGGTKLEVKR",
    "reported_endpoint": "kon",
    "recorded_measurement": 570000
  },
  {
    "binder": "anti-VISTA clone V4-C30 IgG1 (antibody, V domains shown) VH: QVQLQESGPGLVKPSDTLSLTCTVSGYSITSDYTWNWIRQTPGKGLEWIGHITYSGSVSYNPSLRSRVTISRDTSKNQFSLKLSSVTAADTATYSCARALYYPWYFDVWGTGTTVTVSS VL: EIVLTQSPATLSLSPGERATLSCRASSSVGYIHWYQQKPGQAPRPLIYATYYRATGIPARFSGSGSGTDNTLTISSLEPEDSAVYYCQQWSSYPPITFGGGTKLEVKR",
    "reported_endpoint": "kon",
    "recorded_measurement": 505000
  }
]

We now examine a further binder.
**Q:** Tell me its kon given anti-VISTA clone V4-C24 IgG1 (antibody, V domains shown) VH: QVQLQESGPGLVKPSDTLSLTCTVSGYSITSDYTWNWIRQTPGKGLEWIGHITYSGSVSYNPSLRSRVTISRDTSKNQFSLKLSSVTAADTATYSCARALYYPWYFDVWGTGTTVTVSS VL: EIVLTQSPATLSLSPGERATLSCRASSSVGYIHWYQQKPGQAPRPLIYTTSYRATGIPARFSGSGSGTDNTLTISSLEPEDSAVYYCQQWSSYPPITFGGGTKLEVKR as the entry.
**A:** 401000

# credit: patent US20250313631A1
